Target: T1, mouse somatostatin receptor SSTR2 (mouse)
T1 chain: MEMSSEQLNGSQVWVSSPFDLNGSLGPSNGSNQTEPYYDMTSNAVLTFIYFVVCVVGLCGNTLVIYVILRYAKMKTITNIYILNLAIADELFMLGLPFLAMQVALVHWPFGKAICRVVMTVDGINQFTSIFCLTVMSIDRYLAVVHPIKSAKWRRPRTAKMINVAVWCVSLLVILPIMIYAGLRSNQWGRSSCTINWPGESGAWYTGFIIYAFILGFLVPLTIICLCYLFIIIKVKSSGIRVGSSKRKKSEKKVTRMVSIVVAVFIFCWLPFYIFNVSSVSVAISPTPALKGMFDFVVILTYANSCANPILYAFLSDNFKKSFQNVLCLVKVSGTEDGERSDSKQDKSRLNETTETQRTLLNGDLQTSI
Assay: competition of [125I]iodo-Tyr11-somatostatin-14 binding to CHO cells transfected with mouse SSTR2
No end group written: not given here.
endpoint: pIC50
The quantity pIC50 is defined as the negative base-10 logarithm of the molar concentration.

Query :: I have this binder here, AGCKNFFWKTFTSC (not fully specified (bridges); cysteine pairing not given here) [somatostatin-14] , and I need its recorded pIC50.
Result :: 8.80
